pKd reference
- TARGET OR TEST SYSTEM: T1, NHERF3_1, Q5T2W1
- T1 sequence (Q5T2W1 4-100, limits assumed, looked up): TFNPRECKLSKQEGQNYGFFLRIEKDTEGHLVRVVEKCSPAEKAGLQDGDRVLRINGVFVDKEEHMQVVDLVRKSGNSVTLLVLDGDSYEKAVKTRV
- ASSAY METHOD TEXT: holdup assay
- Design: key: below the threshold = too weak to quantify, mostly under pKd 3.1 to 4
- STATED CONDITIONS: plain residues with an end cap or a label only (N-terminal biotin on a linker: ttds)
QUANTITY NAME: pKd

DLDEEEDTHL [PODXL, O00592]; 4.5
FVETQHQTQV [FAT3, Q8TDW7]; 4.72
